Origin of measurements: patent US20250115598A1

- System: Immortalised Mouse Dermal Fibroblasts (MDFs)
- assay.overview: Cellular assay: inhibition of TSI induced necroptosis, CellTitre-Glo viability
- condition.info: Mus musculus, Fibroblast; MDF, 3 hours TSI cocktail, Table 27; read-out: Inhibition of TSI-induced necroptosis (IC50 cell-based assay) in MDF
pIC50: −log10 of the molar value.
property.measured: pIC50

Example entries begin here.
C[C@H](Oc1cc(-c2nn(C)c3c(-c4cnn(C5CCN(C(=O)COc6cccc7c6C(=O)N(C6CCC(=O)NC6=O)C7=O)CC5)c4)cnc(N)c23)ccc1NS(=O)(=O)C(F)F)c1ccc(F)cc1 (stereo partly drawn) [Compound 1082] : 5.00 to 6.00
C[C@H](Oc1cc(-c2nn(C)c3c(-c4cnn(C5CCN(C(=O)[C@H]6CC[C@H](Nc7cccc8c7C(=O)N(C7CCC(=O)NC7=O)C8=O)CC6)CC5)c4)cnc(N)c23)ccc1NS(=O)(=O)C(F)F)c1ccc(F)cc1 (stereo partly drawn) [Compound 1058] : > 6.00
CCS(=O)(=O)Nc1ccc(-c2nn(C)c3c(-c4cnn(C5CCN(C(=O)CCC6CCN(c7cccc8c7C(=O)N(C7CCC(=O)NC7=O)C8=O)CC6)CC5)c4)cnc(N)c23)cc1F (stereo not drawn) [Compound 1088] : > 6.00
C[C@H](Oc1cc(-c2nn(C)c3c(-c4cnn(C5CCN(C(=O)C6CCCN(c7cccc8c7C(=O)N(C7CCC(=O)NC7=O)C8=O)C6)CC5)c4)cnc(N)c23)ccc1NS(=O)(=O)C(F)F)c1ccc(F)cc1 (stereo partly drawn) [Compound 1077] : 5.00 to 6.00
C[C@H](Oc1cc(-c2nn(C)c3c(-c4cnn(C5CCN(C(=O)[C@H]6C[C@H](Nc7cccc8c7C(=O)N(C7CCC(=O)NC7=O)C8=O)C6)C6(CC6)C5)c4)cnc(N)c23)ccc1NS(=O)(=O)C(F)F)c1ccc(F)cc1 (stereo partly drawn) [Compound 1107] : > 6.00

Missing value: pIC50, Immortalised Mouse Dermal Fibroblasts (MDFs), entry C[C@H](Oc1cc(-c2nn(C)c3c(-c4cnn(C5CCN(C(=O)N6CC(Nc7cccc8c7C(=O)N(C7CCC(=O)NC7=O)C8=O)C6)CC5)c4)cnc(N)c23)ccc1NS(=O)(=O)C(F)F)c1ccc(F)cc1 (stereo partly drawn) [Compound 1124] . Fill in? > 6.00

Record lookup: for Immortalised Mouse Dermal Fibroblasts (MDFs), what pIC50 belongs to C[C@H](Oc1cc(-c2nn(C)c3c(-c4cnn(C5CCN(C(=O)CC(=O)N6CCN(c7cccc8c7C(=O)N(C7CCC(=O)NC7=O)C8=O)CC6)CC5)c4)cnc(N)c23)ccc1NS(=O)(=O)C(F)F)c1ccc(F)cc1 (stereo partly drawn) [Compound 1098] ? 5.00 to 6.00

What pIC50 appears in the records for this compound with Immortalised Mouse Dermal Fibroblasts (MDFs)? C[C@H](Oc1cc(-c2nn(C)c3c(C#CC(=O)N[C@H]4C[C@H](Nc5cccc6c5C(=O)N(C5CCC(=O)NC5=O)C6=O)C4)cnc(N)c23)ccc1NS(=O)(=O)C(F)F)c1ccc(F)cc1 (stereo partly drawn) [Compound 1109] 5.00 to 6.00

Short answer please: pIC50, Immortalised Mouse Dermal Fibroblasts (MDFs), entry C[C@H](Oc1cc(-c2nn(C)c3c(-c4cnn(C5CCN(C[C@H]6C[C@H](Nc7cccc8c7C(=O)N(C7CCC(=O)NC7=O)C8=O)C6)CC5)c4)cnc(N)c23)ccc1NS(=O)(=O)C(F)F)c1ccc(F)cc1 (stereo partly drawn) [Compound 1108] > 6.00
